Kd for assorted binders
molecular target: T1, cynomolgus monkey BCMA (cynomolgus monkey, UniProt A0A2K5UD97 1-53); test: SPR, IgG immobilised, 37 C
T1 construct: Soluble analyte in SPR; construct not described; also called cyBCMA; Cyno BCMA
T1 sequence (A0A2K5UD97 entry or part of it): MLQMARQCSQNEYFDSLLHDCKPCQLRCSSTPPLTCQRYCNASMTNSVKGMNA
Report as a plain number; the unit nM is understood.

Look up Kd for this binder: L3.PY/L1.PS/H2.QR (antibody, V domains shown, IgG) VH: EVQLLESGGGLVQPGGSLRLSCAASGFTFGSYAMTWVRQAPGKGLEWVSAISGSGGNTFYADQRKGRFTISRDNSKNTLYLQMNSLRAEDTAVYYCARVSPIASGMDYWGQGTLVTVSS VL: EIVLTQSPGTLSLSPGERATLSCRASQSVSSSYPSWYQQKPGQAPRLLIYGASSRATGIPDRFSGSGSGTDFTLTISRLEPEDFAVYYCQHYPYPPSFTFGQGTKVEIK
1.28

Look up Kd for this binder: L3.PY/L1.PS/H3.YA (antibody, V domains shown, IgG) VH: EVQLLESGGGLVQPGGSLRLSCAASGFTFGSYAMTWVRQAPGKGLEWVSAISGSGGNTFYADSVKGRFTISRDNSKNTLYLQMNSLRAEDTAVYYCARVSPIYAGMDYWGQGTLVTVSS VL: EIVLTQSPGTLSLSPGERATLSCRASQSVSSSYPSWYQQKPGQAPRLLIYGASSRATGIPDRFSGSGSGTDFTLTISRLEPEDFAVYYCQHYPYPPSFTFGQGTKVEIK
5.65

Look up Kd for this binder: L3.PY/H3.TAQ (antibody, V domains shown, IgG) VH: EVQLLESGGGLVQPGGSLRLSCAASGFTFGSYAMTWVRQAPGKGLEWVSAISGSGGNTFYADSVKGRFTISRDNSKNTLYLQMNSLRAEDTAVYYCTRVSPIAAQMDYWGQGTLVTVSS VL: EIVLTQSPGTLSLSPGERATLSCRASQSVSSSYLAWYQQKPGQAPRLLIYGASSRATGIPDRFSGSGSGTDFTLTISRLEPEDFAVYYCQHYPYPPSFTFGQGTKVEIK
1.7

Look up Kd for this binder: L3.PY/H2.DY (antibody, V domains shown, IgG) VH: EVQLLESGGGLVQPGGSLRLSCAASGFTFGSYAMTWVRQAPGKGLEWVSAIDYSGGNTFYADSVKGRFTISRDNSKNTLYLQMNSLRAEDTAVYYCARVSPIASGMDYWGQGTLVTVSS VL: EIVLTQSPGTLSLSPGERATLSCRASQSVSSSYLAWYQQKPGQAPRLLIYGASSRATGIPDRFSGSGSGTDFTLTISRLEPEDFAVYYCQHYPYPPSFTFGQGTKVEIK
2.76

Look up Kd for this binder: L3.PY/H3.AQ (antibody, V domains shown, IgG) VH: EVQLLESGGGLVQPGGSLRLSCAASGFTFGSYAMTWVRQAPGKGLEWVSAISGSGGNTFYADSVKGRFTISRDNSKNTLYLQMNSLRAEDTAVYYCARVSPIAAQMDYWGQGTLVTVSS VL: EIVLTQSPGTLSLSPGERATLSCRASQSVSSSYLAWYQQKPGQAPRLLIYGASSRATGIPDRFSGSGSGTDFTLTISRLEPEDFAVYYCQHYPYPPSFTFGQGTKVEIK
1.94

Look up Kd for this binder: L3.PY/H2.LT (antibody, V domains shown, IgG) VH: EVQLLESGGGLVQPGGSLRLSCAASGFTFGSYAMTWVRQAPGKGLEWVSAISLTGGNTFYADSVKGRFTISRDNSKNTLYLQMNSLRAEDTAVYYCARVSPIASGMDYWGQGTLVTVSS VL: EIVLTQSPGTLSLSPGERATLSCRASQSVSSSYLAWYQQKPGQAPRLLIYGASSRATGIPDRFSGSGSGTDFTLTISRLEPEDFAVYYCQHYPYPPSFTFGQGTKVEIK
3.63

Look up Kd for this binder: L3.PY/L1.AH/H2.HA (antibody, V domains shown, IgG) VH: EVQLLESGGGLVQPGGSLRLSCAASGFTFGSYAMTWVRQAPGKGLEWVSAISHAGGNTFYADSVKGRFTISRDNSKNTLYLQMNSLRAEDTAVYYCARVSPIASGMDYWGQGTLVTVSS VL: EIVLTQSPGTLSLSPGERATLSCRASQSVSAHYLAWYQQKPGQAPRLLIYGASSRATGIPDRFSGSGSGTDFTLTISRLEPEDFAVYYCQHYPYPPSFTFGQGTKVEIK
1.7

Look up Kd for this binder: L3.PY/H2.YQ (antibody, V domains shown, IgG) VH: EVQLLESGGGLVQPGGSLRLSCAASGFTFGSYAMTWVRQAPGKGLEWVSAISYQGGNTFYADSVKGRFTISRDNSKNTLYLQMNSLRAEDTAVYYCARVSPIASGMDYWGQGTLVTVSS VL: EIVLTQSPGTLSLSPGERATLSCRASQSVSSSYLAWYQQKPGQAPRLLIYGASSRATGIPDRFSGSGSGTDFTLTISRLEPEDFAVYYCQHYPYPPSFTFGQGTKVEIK
2.53

Look up Kd for this binder: L3.PY/H3.YA (antibody, V domains shown, IgG) VH: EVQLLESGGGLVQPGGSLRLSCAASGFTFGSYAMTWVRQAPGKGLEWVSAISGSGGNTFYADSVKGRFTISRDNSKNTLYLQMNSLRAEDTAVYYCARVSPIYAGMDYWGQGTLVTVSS VL: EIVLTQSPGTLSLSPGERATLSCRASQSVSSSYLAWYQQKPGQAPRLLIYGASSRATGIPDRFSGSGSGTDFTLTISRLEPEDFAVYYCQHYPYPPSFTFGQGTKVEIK
1.88

Look up Kd for this binder: L3.PY/H3.AE (antibody, V domains shown, IgG) VH: EVQLLESGGGLVQPGGSLRLSCAASGFTFGSYAMTWVRQAPGKGLEWVSAISGSGGNTFYADSVKGRFTISRDNSKNTLYLQMNSLRAEDTAVYYCARVSPIAAEMDYWGQGTLVTVSS VL: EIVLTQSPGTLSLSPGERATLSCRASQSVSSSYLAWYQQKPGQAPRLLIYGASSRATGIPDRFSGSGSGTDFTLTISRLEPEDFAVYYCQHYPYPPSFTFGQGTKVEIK
1.79

Look up Kd for this binder: L3.PY/H2.QL (antibody, V domains shown, IgG) VH: EVQLLESGGGLVQPGGSLRLSCAASGFTFGSYAMTWVRQAPGKGLEWVSAISGSGGNTFYADQLKGRFTISRDNSKNTLYLQMNSLRAEDTAVYYCARVSPIASGMDYWGQGTLVTVSS VL: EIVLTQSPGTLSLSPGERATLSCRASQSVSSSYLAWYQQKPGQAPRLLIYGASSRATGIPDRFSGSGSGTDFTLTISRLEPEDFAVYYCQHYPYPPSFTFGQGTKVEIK
6.16
